assay: Aqueous solubility, pH dependence; type: physicochemical; conditions: aqueous buffer, thermodynamic from solid; Ethanolamine buffer, pH = 9.4, 25 C; read-out: Solubility
reportedEndpoint: solubility (µg/mL)
Give the quantity in µg/mL, number only.

query: Please report solubility for the following compound: `Cc1cc(C[C@@H](NC(=O)N2CCC(c3cc4ccccc4[nH]c3=O)CC2)C(=O)N2CCN(C3CCN(C)CC3)CC2)cc2cn[nH]c12`
result: 500

---

test: Pharmacokinetics in the rabbit after IV and IN administration; format: in vivo, New Zealand White rabbits; details: male, New Zealand White, plasma, IV 0.5 mg/kg, read-out: Vss
reportedEndpoint: Vd (L/kg)
Give the quantity in L/kg, number only.

query: Please report Vd for the following molecule: `Cc1cc(C[C@@H](NC(=O)N2CCC(c3cc4ccccc4[nH]c3=O)CC2)C(=O)N2CCN(C3CCN(C)CC3)CC2)cc2cn[nH]c12`
result: 0.16

---

test: One-week comparative intranasal irritation study in rats: toxicokinetics; details: male, rat, in vivo, inhaled or intranasal, 15 mg, intranasal 15 mg (1.07 mg/cm^2) once daily, Day 0
reportedEndpoint: Tmax (h)
Give the quantity in h, number only.

query: Please report Tmax for the following compound: `Cc1cc(C[C@@H](NC(=O)N2CCC(c3cc4ccccc4[nH]c3=O)CC2)C(=O)N2CCN(C3CCN(C)CC3)CC2)cc2cn[nH]c12`
result: 1

---

experiment: One-week comparative intranasal irritation study in rats: toxicokinetics; conditions: male, rat, in vivo, inhaled or intranasal, 35 mg, intranasal 35 mg (2.50 mg/cm^2) once daily, Day 6, read-out: Mean T1/2 (converted)
reportedEndpoint: half-life (h)
Give the quantity in h, number only.

query: Please report half-life for the following molecule: Cc1cc(C[C@@H](NC(=O)N2CCC(c3cc4ccccc4[nH]c3=O)CC2)C(=O)N2CCN(C3CCN(C)CC3)CC2)cc2cn[nH]c12 [Compound I]
result: 6

---

test: Pharmacokinetics in the rabbit after IV and IN administration; type: in vivo, New Zealand White rabbits; settings: male, New Zealand White, plasma, inhaled or intranasal, IN mid-dose 1.0 mg/kg (30 mg/ml), n = 3, Mean ± SD
reportedEndpoint: AUC (µM·h)
Give the quantity in µM·h, number only.

query: Please report AUC for the following compound: `Cc1cc(C[C@@H](NC(=O)N2CCC(c3cc4ccccc4[nH]c3=O)CC2)C(=O)N2CCN(C3CCN(C)CC3)CC2)cc2cn[nH]c12`
result: 0.69

---

test: Pharmacokinetics in the rabbit after IV and IN administration; format: in vivo, New Zealand White rabbits; details: male, New Zealand White, plasma, inhaled or intranasal, 3 mg/kg, IN, range over 0.3, 1, and 3 mg/kg
reportedEndpoint: Cmax

query: Please report Cmax for the following compound: Cc1cc(C[C@@H](NC(=O)N2CCC(c3cc4ccccc4[nH]c3=O)CC2)C(=O)N2CCN(C3CCN(C)CC3)CC2)cc2cn[nH]c12 [Compound I]
result: 120 to 2000 nM

---

assay: One-week comparative intranasal irritation study in rats: toxicokinetics; settings: male, rat, in vivo, inhaled or intranasal, 35 mg, intranasal 35 mg (2.50 mg/cm^2) once daily, Day 0
reportedEndpoint: Cmax (nM)
Give the quantity in nM, number only.

query: Please report Cmax for the following compound: `Cc1cc(C[C@@H](NC(=O)N2CCC(c3cc4ccccc4[nH]c3=O)CC2)C(=O)N2CCN(C3CCN(C)CC3)CC2)cc2cn[nH]c12`
result: 1500

---

experiment: Intravenous exposure in rats (reference for bioavailability); details: rat, in vivo, intravenous administration of 1 mg/kg, read-out: AUC0-24 h
reportedEndpoint: AUC(0-t) (µM·h)
Give the quantity in µM·h, number only.

query: Please report AUC(0-t) for the following compound: Cc1cc(C[C@@H](NC(=O)N2CCC(c3cc4ccccc4[nH]c3=O)CC2)C(=O)N2CCN(C3CCN(C)CC3)CC2)cc2cn[nH]c12 [Compound I]
result: 7.7

---

assay: Pharmacokinetics in the rabbit after IV and IN administration; format: in vivo, New Zealand White rabbits; conditions: male, New Zealand White, plasma, inhaled or intranasal, 3 mg/kg, IN high dose 3.0 mg/kg, read-out: Bioavailability (F %)
reportedEndpoint: bioavailability (%)
Give the quantity in %, number only.

query: Please report bioavailability for the following compound: `Cc1cc(C[C@@H](NC(=O)N2CCC(c3cc4ccccc4[nH]c3=O)CC2)C(=O)N2CCN(C3CCN(C)CC3)CC2)cc2cn[nH]c12`
result: 30.2

---

biological target: CGRP receptor endogenously expressed in SK-N-MC cell membranes (Homo sapiens, UniProt O60894+Q16602); construct: endogenous in cells; assay: Competition for [125I]CGRP binding (radioligand competition assay); conditions: 15 pM [125I]CGRP, read-out: mean Ki, inhibition of [125I]CGRP binding
reportedEndpoint: Ki
Provide a numeric answer, followed by its unit.

query: Please report Ki for the following compound: `Cc1cc(C[C@@H](NC(=O)N2CCC(c3cc4ccccc4[nH]c3=O)CC2)C(=O)N2CCN(C3CCN(C)CC3)CC2)cc2cn[nH]c12`
result: 0.0227 nM

---

test: Pharmacokinetics in the rabbit after IV and IN administration; type: in vivo, New Zealand White rabbits; conditions: male, New Zealand White, plasma, IV 0.5 mg/kg
reportedEndpoint: MRT (min)
Give the quantity in min, number only.

query: Please report MRT for the following molecule: `Cc1cc(C[C@@H](NC(=O)N2CCC(c3cc4ccccc4[nH]c3=O)CC2)C(=O)N2CCN(C3CCN(C)CC3)CC2)cc2cn[nH]c12`
result: 22.8

---

assay: One-week comparative intranasal irritation study in rats: toxicokinetics; conditions: male, rat, in vivo, other: intranasal instillation, 35 mg, intranasal 35 mg (2.50 mg/cm^2) once daily, Day 0, read-out: Mean C24 h
reportedEndpoint: concentration at 24 h

query: Please report concentration at 24 h for the following compound: `Cc1cc(C[C@@H](NC(=O)N2CCC(c3cc4ccccc4[nH]c3=O)CC2)C(=O)N2CCN(C3CCN(C)CC3)CC2)cc2cn[nH]c12`
result: 120 nM

---

assay: Pharmacokinetics in the rabbit after IV and IN administration; type: in vivo, New Zealand White rabbits; conditions: male, New Zealand White, plasma, inhaled or intranasal, 3 mg/kg, IN high dose 3.0 mg/kg (100 mg/ml), n = 3, Mean ± SD
reportedEndpoint: Cmax (nM)
Give the quantity in nM, number only.

query: Please report Cmax for the following molecule: `Cc1cc(C[C@@H](NC(=O)N2CCC(c3cc4ccccc4[nH]c3=O)CC2)C(=O)N2CCN(C3CCN(C)CC3)CC2)cc2cn[nH]c12`
result: 2030

---

assay: Pharmacokinetics in the rabbit after IV and IN administration; format: in vivo, New Zealand White rabbits; conditions: male, New Zealand White, plasma, inhaled or intranasal, IN mid-dose 1.0 mg/kg, read-out: Tmax
reportedEndpoint: Tmax (min)
Give the quantity in min, number only.

query: Please report Tmax for the following compound: Cc1cc(C[C@@H](NC(=O)N2CCC(c3cc4ccccc4[nH]c3=O)CC2)C(=O)N2CCN(C3CCN(C)CC3)CC2)cc2cn[nH]c12 [Compound I]
result: 15

---

assay: One-week comparative intranasal irritation study in rats: toxicokinetics; settings: male, rat, in vivo, inhaled or intranasal, 15 mg, intranasal 15 mg (1.07 mg/cm^2) once daily, Day 6
reportedEndpoint: Cmax (nM)
Give the quantity in nM, number only.

query: Please report Cmax for the following molecule: Cc1cc(C[C@@H](NC(=O)N2CCC(c3cc4ccccc4[nH]c3=O)CC2)C(=O)N2CCN(C3CCN(C)CC3)CC2)cc2cn[nH]c12 [Compound I]
result: 830

---

test: One-week comparative intranasal irritation study in rats: toxicokinetics; details: male, rat, in vivo, inhaled or intranasal, 5 mg, intranasal 5 mg (0.357 mg/cm^2) once daily, Day 0, read-out: Composite AUC0-24 h
reportedEndpoint: AUC(0-t) (µM·h)
Give the quantity in µM·h, number only.

query: Please report AUC(0-t) for the following compound: `Cc1cc(C[C@@H](NC(=O)N2CCC(c3cc4ccccc4[nH]c3=O)CC2)C(=O)N2CCN(C3CCN(C)CC3)CC2)cc2cn[nH]c12`
result: 1.6

---

assay: One-week comparative intranasal irritation study in rats: toxicokinetics; settings: male, rat, in vivo, inhaled or intranasal, 35 mg, intranasal 35 mg (2.50 mg/cm^2) once daily, Day 6
reportedEndpoint: Cmax (nM)
Give the quantity in nM, number only.

query: Please report Cmax for the following molecule: Cc1cc(C[C@@H](NC(=O)N2CCC(c3cc4ccccc4[nH]c3=O)CC2)C(=O)N2CCN(C3CCN(C)CC3)CC2)cc2cn[nH]c12 [Compound I]
result: 1200

---

test: Pharmacokinetics in the rabbit after IV and IN administration; format: in vivo, New Zealand White rabbits; conditions: male, New Zealand White, plasma, IV 0.5 mg/kg, n = 3, Mean ± SD
reportedEndpoint: AUC (µM·h)
Give the quantity in µM·h, number only.

query: Please report AUC for the following compound: `Cc1cc(C[C@@H](NC(=O)N2CCC(c3cc4ccccc4[nH]c3=O)CC2)C(=O)N2CCN(C3CCN(C)CC3)CC2)cc2cn[nH]c12`
result: 1.8
